Molecular target: VHL (Homo sapiens (Human))
Experiment: VHL fluorescence polarization (FP) competition assay
Format: binding
Conditions: 10% in DMSO
Hi there, I'd appreciate the recorded IC50 for every entry that follows.
Kindly provide the numeric value in µM only, without the unit symbol.

Inquiry: For the compound Cc1ncsc1-c1ccc(CNC(=O)[C@@H]2C[C@@H](O)CN2C(=O)C(C)(C)N2Cc3ccccc3C2=O)cc1 [Example 46] , give its reported IC50.
Reply text: 5100

Inquiry: Please supply the value of reported IC50 for the item CC(C)[C@@H](C(=O)N1C[C@H](O)C[C@H]1C(=O)NCc1ccc(-c2ccccc2)cc1)N1Cc2ccccc2C1=O [Example 40]
Reply text: 3.92

Inquiry: Please give the documented IC50 of COc1ccccc1CCC(=O)N[C@H](C(=O)N1C[C@H](O)C[C@H]1C(=O)NCc1ccc(-c2scnc2C)cc1)C(C)(C)C [Example 83]
Reply text: 0.32

Inquiry: Return the recorded IC50 value; entry: Cc1ncsc1-c1ccc(CNC(=O)[C@@H]2C[C@@H](O)CN2C(=O)[C@@H](NC(=O)CCC(C)C)C(C)(C)C)cc1 [Example 28]
Reply text: 3.6

###

Target: VHL (Homo sapiens (Human), UniProt P40337)
Assay: VHL fluorescence polarization (FP) competition assay
Type: binding
Conditions: 10% in DMSO
Please provide measured IC50 for the entries that follow.
Quick note: give the figure in nM, leave out the unit.

Inquiry: # return recorded IC50 for input `Cc1ncsc1-c1ccc(CNC(=O)[C@@H]2C[C@@H](O)CN2C(=O)[C@H](C(C)C)N2Cc3ccccc3C2=O)c(F)c1`
Reply text: 1580

Inquiry: Dear colleague, please send me the reported IC50 for `Cc1ncsc1-c1ccc(CNC(=O)[C@@H]2C[C@@H](O)CN2C(=O)[C@@H](NC(=O)c2cccc(C#N)c2)C(C)(C)C)cc1` when you can.
Reply text: 1380

Inquiry: Provide one value: measured IC50 of `CC[C@H](C)[C@H](NC(=O)CCC(C)C)C(=O)N1C[C@H](O)C[C@H]1C(=O)NCc1ccc(-c2scnc2C)cc1`
Reply text: 2110

###

I'd be grateful if you could share measured IC50 for these entries.
Target: VHL (Homo sapiens (Human))
Test: VHL fluorescence polarization (FP) competition assay
Assay type: binding
Settings: 10% in DMSO
Only the number, expressed in nM, is required.

Inquiry: Fill in IC50 for `Cc1ncsc1-c1ccc(CNC(=O)[C@@H]2C[C@@H](O)CN2C(=O)[C@@H](NC(=O)c2ccccn2)C(C)(C)C)cc1` tested with VHL (Homo sapiens (Human)).
Reply text: 810

Inquiry: GET IC50 where system = VHL (Homo sapiens (Human)) and item = `Cc1ncsc1-c1ccc(CNC(=O)[C@@H]2C[C@@H](O)CN2C(=O)C2(N3Cc4ccccc4C3=O)CC2)cc1`
Reply text: 244000

Inquiry: Report its IC50 with VHL (Homo sapiens (Human)) as the test system: `Cc1ncsc1-c1ccc(CNC(=O)[C@@H]2C[C@@H](O)CN2C(=O)[C@H](CS)NC(=O)CCC(C)C)cc1`
Reply text: 3690

Inquiry: Consider the compound `Cc1ncsc1-c1ccc(CNC(=O)[C@@H]2C[C@@H](O)CN2C(=O)[C@H](C(C)C)N2Cc3cccc(F)c3C2=O)cc1` tested on VHL (Homo sapiens (Human)); state its IC50.
Reply text: 1330

src = patent US10730870B2
